# Procedure details: NCI Yeast Anticancer Drug Screen. Data for the bub3 strain (AID 167)
# Measurement setup: S. cerevisiae bub3 mutant strain, at 50.0 µM, active compounds read high
# Procedure: Growth inhibition of yeast strains with defined genetic alterations is measured as a screen for potential anti-cancer activity. Selected strains with alterations in DNA damage repair or cell cycle control were exposed to compounds and growth inhibition was measured relative to vehicle treated controls. The strain used in this assay is bub3
The panel holds about 79,000 compounds, 15% with a hit somewhere; the sample as a whole holds those more often.
Readout type: growth inhibition (%)

O=C1C=C[C@H](O)[C@@]2(CO)O[C@@H]12: -13.7
NC(=O)NCCO: -6.05
CC(=O)N(C(C)=O)c1ccc(C)cc1: -11.2
Cc1cc2c3ccc(C)[n+](C)c3ccc2n1C: 7.65
CCCCOC(=O)c1ccccc1O: 0.85
CCCCN(C=S)CCCC: -2.2
CCOC(=O)Nc1nccs1: -2.6
O=C1C=CC(=O)C2=C1CCCC2: -20.2
CSc1nsc(N)n1: 16.8
CCc1ccccc1C(=O)N(CC)CC: -16.1
CC(=O)c1cccc(O)c1: -5.1
CCN(CC)CCOC(=O)Nc1c(C(C)C)cccc1C(C)C: 13
CC(CCC#N)(CCC#N)C(=O)c1ccccc1: -4.75
CCOP(=O)(NC(c1ccccc1)c1ccccc1)OCC: 25.1
CC1CCC(C)(C)c2ccccc21 (configuration not stated): -7.75
Nc1nc(Cl)cc(Cl)n1: 2.85
CC(=O)OCC1CCC(COC(C)=O)CC1 (configuration not stated): 19.7
COc1ccc(C(=O)/C(=N/Nc2ccccc2)c2ccc(OC)cc2)cc1: 1.8
CC(C)c1ccc(C(=O)OCCCl)cc1: -4.2
C=CCNC(=S)N/C=C(/C(=O)c1ccccc1)c1ccccc1: -20.4
CCCCOC(=O)c1ccc(NC(=O)CCl)cc1: 13.8
Cc1ccc2[nH]c3ccccc3c2c1: 15
O=C(O)Cc1ccc(Cl)cc1: -25.2
O=Cc1c(O)c2ccccc2[nH]c1=O: 4.2
CS(=O)(=O)c1ccc(/C=C\C(=O)O)cc1: -3.7
CC(=O)NC(O)C(Cl)Cl (configuration not stated): -5.7
CCOC(=O)/C(O)=C(\C=N\C(=S)Nc1ccc(Cl)c(Cl)c1)C(=O)OCC: 49.5
O=C1Nc2ccccc2/C1=C\c1ccccc1O: 17.4
COc1cccc(N=CNc2cccc(OC)c2)c1: -11.8
COC(=O)C1=C(C)C(=O)CC1: 13.9
C/C(=N\O)c1ccccn1: -8.85
O=Cc1ccc(Cl)c(Cl)c1: -5.85
Cc1[nH]nc(C(N)=O)c1[N+](=O)[O-]: -6.7
Cc1cc(CC(=O)NCCO)n(CCO)c(=O)c1: -2.7
C=C1C(=O)C2CCN1CC2: -18.1
S=C(NCc1ccccc1)N1CCC(CCCC2CCN(C(=S)NCc3ccccc3)CC2)CC1: 2.85
N#CCCN1C(=O)CCC1C(=O)O (configuration not stated): -3.1
C(=C\c1ccncc1)/c1ccncc1: 7.8
c1ccc2[nH]c(Cc3nc4ccccc4[nH]3)nc2c1: 35
C=CC(C)(C)n1cc(C2=C(O)C(=O)C(c3cn(C(C)(C)C=C)c4ccccc34)=C(O)C2=O)c2ccccc21: -18.8
O=c1nc(Nc2cccc(Cl)c2)oc2cc(Cl)oc(=O)c12: 36.5
C=CCS(C)(=O)=O: -0.8
CN1CCN(C(=S)S)CC1: 3.5
O=C(Nc1ccc([N+](=O)[O-])cc1)C(=O)Nc1ccc([N+](=O)[O-])cc1: 3.1
O=CNCCc1ccccc1: 6.3
ClCC(Cl)[C@@H]1CC2C=CC1C2 (some centres not stated): 11.2
CC(C)c1ccccc1NC(=O)N1CCC(C(C)C)CC1: -7
CC(O)C(F)(F)C(F)(F)C(F)(F)F (configuration not stated): -2.7
Cc1cc(C(=O)c2ccccc2)cc(C)c1O: -0.4
Cc1cc(C)cc(OCC(=O)O)c1: -4.45
CN1C(=O)NC(c2ccc(Cl)cc2)(c2ccc(Cl)cc2)C1=O: -8
Nc1ccccc1SC1CC(=O)N(c2ccc(Cl)c(Cl)c2)C1=O (configuration not stated): 1.15
CCN1CCCC(N2c3ccccc3Sc3ccccc32)C1 (configuration not stated): 8.5
CCCOCc1cn[nH]n1: -8.95
Cc1cc(Cc2ccccc2)c(O)c(Cc2ccccc2)c1: 12.3
CCC12OC(COc3ccccc3)CN1CCN2c1ccccc1 (configuration not stated): -15.1
Nc1nc2nnc(-c3ccccc3)c(-c3ccccc3)n2n1: 9.65
